Data provenance is the RNAGym collection of RNA variant scans (doi:10.1073/pnas.2313332121).

B1: TPR 5TU (parent)
chain: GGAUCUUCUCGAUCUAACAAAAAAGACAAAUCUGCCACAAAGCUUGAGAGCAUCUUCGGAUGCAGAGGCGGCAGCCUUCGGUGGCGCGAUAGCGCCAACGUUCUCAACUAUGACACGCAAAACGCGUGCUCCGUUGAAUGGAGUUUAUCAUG

variants of: B1; experiment: polymerase ribozyme fitness, log enrichment relative to wild type (log ratio); higher = more active; in vitro selection for triplet polymerase activity
This sample holds only a part of the variants without activity.
# polymerase ribozyme fitness (log ratio) per record follows
assayMetric: polymerase ribozyme fitness (log ratio)

- variantLabel: "A49C A107G U151C"
  assayMetric: "polymerase ribozyme fitness (log ratio)"
  reportedRelation: "≤"
  readoutNumber: -4.2
- variantLabel: "U6C C38U C75G U82A A107G A120G G133A U134A"
  assayMetric: "polymerase ribozyme fitness (log ratio)"
  reportedRelation: "≤"
  readoutNumber: -4.2
- variantLabel: "U101A"
  assayMetric: "polymerase ribozyme fitness (log ratio)"
  reportedRelation: "="
  readoutNumber: 0.177
- variantLabel: "A52U G84C C116U U146G"
  assayMetric: "polymerase ribozyme fitness (log ratio)"
  reportedRelation: "="
  readoutNumber: -4.11
- variantLabel: "A26C A52C C85U G117A A142G"
  assayMetric: "polymerase ribozyme fitness (log ratio)"
  reportedRelation: "="
  readoutNumber: -3.88
- variantLabel: "C27A U53A A119C"
  assayMetric: "polymerase ribozyme fitness (log ratio)"
  reportedRelation: "≤"
  readoutNumber: -4.2
- variantLabel: "G58U C95U"
  assayMetric: "polymerase ribozyme fitness (log ratio)"
  reportedRelation: "="
  readoutNumber: -0.414
- variantLabel: "U102A C114U A115G A120U"
  assayMetric: "polymerase ribozyme fitness (log ratio)"
  reportedRelation: "="
  readoutNumber: -3.62
- variantLabel: "C93A C125A"
  assayMetric: "polymerase ribozyme fitness (log ratio)"
  reportedRelation: "="
  readoutNumber: -1.68
- variantLabel: "U55G G83A A115C C123U G136U"
  assayMetric: "polymerase ribozyme fitness (log ratio)"
  reportedRelation: "="
  readoutNumber: -2.92
- variantLabel: "C27G A52C U53A A64G C69A U78A C79A C87G G94C C95A A142C"
  assayMetric: "polymerase ribozyme fitness (log ratio)"
  reportedRelation: "≤"
  readoutNumber: -4.2
- variantLabel: "A40C A60U G70A C103A A107G"
  assayMetric: "polymerase ribozyme fitness (log ratio)"
  reportedRelation: "≤"
  readoutNumber: -4.2
- variantLabel: "G11C A20G G34U A137U"
  assayMetric: "polymerase ribozyme fitness (log ratio)"
  reportedRelation: "≤"
  readoutNumber: -4.2
- variantLabel: "C54U C72U A91U C95G A98C C103A A119G A121G"
  assayMetric: "polymerase ribozyme fitness (log ratio)"
  reportedRelation: "≤"
  readoutNumber: -4.2
- variantLabel: "G50U U61G C108U U135A"
  assayMetric: "polymerase ribozyme fitness (log ratio)"
  reportedRelation: "≤"
  readoutNumber: -4.2
- variantLabel: "U55A U56A A97U"
  assayMetric: "polymerase ribozyme fitness (log ratio)"
  reportedRelation: "="
  readoutNumber: -0.565
- variantLabel: "U9C C93A"
  assayMetric: "polymerase ribozyme fitness (log ratio)"
  reportedRelation: "≤"
  readoutNumber: -4.2
- variantLabel: "U61G C95G U135C"
  assayMetric: "polymerase ribozyme fitness (log ratio)"
  reportedRelation: "="
  readoutNumber: -4.17
- variantLabel: "C85G G92C A121C C132U U146A"
  assayMetric: "polymerase ribozyme fitness (log ratio)"
  reportedRelation: "≤"
  readoutNumber: -4.2
- variantLabel: "A30U A52G G67U C132U"
  assayMetric: "polymerase ribozyme fitness (log ratio)"
  reportedRelation: "≤"
  readoutNumber: -4.2
- variantLabel: "U45G G50A A73C C93U C96U C99A C108A G112C G124U U127G A142G C149G"
  assayMetric: "polymerase ribozyme fitness (log ratio)"
  reportedRelation: "≤"
  readoutNumber: -4.2
- variantLabel: "G62U C116U"
  assayMetric: "polymerase ribozyme fitness (log ratio)"
  reportedRelation: "="
  readoutNumber: 0.138
- variantLabel: "A3C G58A G94A"
  assayMetric: "polymerase ribozyme fitness (log ratio)"
  reportedRelation: "="
  readoutNumber: -0.578
- variantLabel: "A60C U61A C69G G74A U146G A150C"
  assayMetric: "polymerase ribozyme fitness (log ratio)"
  reportedRelation: "≤"
  readoutNumber: -4.2
- variantLabel: "C96U A147G"
  assayMetric: "polymerase ribozyme fitness (log ratio)"
  reportedRelation: "="
  readoutNumber: -1.18
- variantLabel: "G86U G133A"
  assayMetric: "polymerase ribozyme fitness (log ratio)"
  reportedRelation: "≤"
  readoutNumber: -4.2
- variantLabel: "C57U C96U"
  assayMetric: "polymerase ribozyme fitness (log ratio)"
  reportedRelation: "="
  readoutNumber: -0.201
- variantLabel: "A30U A73U A98U U135G"
  assayMetric: "polymerase ribozyme fitness (log ratio)"
  reportedRelation: "≤"
  readoutNumber: -4.2
- variantLabel: "C27U A47G C93A"
  assayMetric: "polymerase ribozyme fitness (log ratio)"
  reportedRelation: "="
  readoutNumber: -4.19
- variantLabel: "C85G U139A"
  assayMetric: "polymerase ribozyme fitness (log ratio)"
  reportedRelation: "="
  readoutNumber: -4.19
- variantLabel: "A29C A52C C54U U82C U90A G136A"
  assayMetric: "polymerase ribozyme fitness (log ratio)"
  reportedRelation: "≤"
  readoutNumber: -4.2
- variantLabel: "C14G G46U G48A A73U U77C"
  assayMetric: "polymerase ribozyme fitness (log ratio)"
  reportedRelation: "≤"
  readoutNumber: -4.2
- variantLabel: "C14U C32G C69A"
  assayMetric: "polymerase ribozyme fitness (log ratio)"
  reportedRelation: "≤"
  readoutNumber: -4.2
- variantLabel: "C8A C85A"
  assayMetric: "polymerase ribozyme fitness (log ratio)"
  reportedRelation: "="
  readoutNumber: -3.27
- variantLabel: "C38G G74C C87U"
  assayMetric: "polymerase ribozyme fitness (log ratio)"
  reportedRelation: "≤"
  readoutNumber: -4.2
- variantLabel: "A39C A91C A137G"
  assayMetric: "polymerase ribozyme fitness (log ratio)"
  reportedRelation: "≤"
  readoutNumber: -4.2
- variantLabel: "U7A U9C A20G U53G C87U A98U"
  assayMetric: "polymerase ribozyme fitness (log ratio)"
  reportedRelation: "="
  readoutNumber: -3.99
- variantLabel: "C54G G84A"
  assayMetric: "polymerase ribozyme fitness (log ratio)"
  reportedRelation: "="
  readoutNumber: -1.74
- variantLabel: "A12C U90G A107G A138G"
  assayMetric: "polymerase ribozyme fitness (log ratio)"
  reportedRelation: "≤"
  readoutNumber: -4.2
- variantLabel: "G81C U102C A147G"
  assayMetric: "polymerase ribozyme fitness (log ratio)"
  reportedRelation: "="
  readoutNumber: -3.21
- variantLabel: "U55C G74C G124A"
  assayMetric: "polymerase ribozyme fitness (log ratio)"
  reportedRelation: "="
  readoutNumber: -4.12
- variantLabel: "U7A A19U A49U G88U G100U"
  assayMetric: "polymerase ribozyme fitness (log ratio)"
  reportedRelation: "≤"
  readoutNumber: -4.2
- variantLabel: "C51A C85U C103G G124A U145G A150G"
  assayMetric: "polymerase ribozyme fitness (log ratio)"
  reportedRelation: "≤"
  readoutNumber: -4.2
- variantLabel: "G11A A12C A23C G46A A73U G80C A97U U109A U145A"
  assayMetric: "polymerase ribozyme fitness (log ratio)"
  reportedRelation: "≤"
  readoutNumber: -4.2
- variantLabel: "U53C C72U C132U"
  assayMetric: "polymerase ribozyme fitness (log ratio)"
  reportedRelation: "="
  readoutNumber: -3.52
- variantLabel: "G80A A91C A120G"
  assayMetric: "polymerase ribozyme fitness (log ratio)"
  reportedRelation: "≤"
  readoutNumber: -4.2
